- tested-system: T1, 4H3590-AA
- T1 chain: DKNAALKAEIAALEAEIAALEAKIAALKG
- protocol: two-hybrid library CCmax;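 further: natural log of median RNA to DNA barcode read ratio; higher means stronger binding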
- setup-conditions: mean of both orientations

binder: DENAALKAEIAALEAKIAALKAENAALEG [4H1579-AA]
interaction score: 1.2

binder: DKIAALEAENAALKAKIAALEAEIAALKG [4H2274-AA]
interaction score: -0.977

binder: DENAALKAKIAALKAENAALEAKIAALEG [4H1877-AA]
interaction score: -0.565

binder: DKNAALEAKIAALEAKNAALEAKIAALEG [4H3381-AA]
interaction score: -1.02

binder: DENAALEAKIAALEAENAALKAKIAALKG [4H1310-AA]
interaction score: -0.24

binder: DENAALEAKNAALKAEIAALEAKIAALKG [4H1478-AA]
interaction score: 0.946

binder: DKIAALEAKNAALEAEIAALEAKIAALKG [4H2438-AA]
interaction score: -0.136

binder: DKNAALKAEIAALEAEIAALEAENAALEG [4H3587-AA]
interaction score: -0.934

binder: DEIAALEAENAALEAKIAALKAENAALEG [4H171-AA]
interaction score: -0.733

binder: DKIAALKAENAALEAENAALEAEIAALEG [4H2705-AA]
interaction score: -1.6

binder: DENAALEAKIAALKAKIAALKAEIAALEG [4H1385-AA]
interaction score: 2.4

binder: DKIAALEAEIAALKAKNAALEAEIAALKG [4H2162-AA]
interaction score: -0.841

binder: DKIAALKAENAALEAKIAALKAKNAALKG [4H2736-AA]
interaction score: -0.712

binder: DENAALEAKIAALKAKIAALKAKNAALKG [4H1392-AA]
interaction score: 1.89
